test system: SW-620 colon; assay: NCI tumour cell line growth inhibition, 48 h
Reported TGI values for the following compounds.

Would you please look over these solved cases?
# compound, valueObserved
measured = [
    ("Cc1cc(N2CCOCC2)nc2ccc(Cc3ccc4nc(N5CCOCC5)cc(C)c4c3)cc12", "> 100 µM"),
    ("CC(=O)OC1CCC2OOC1O2 (centres undefined)", "> 100 µM"),
    ("O=C(c1cscc1CCc1ccccc1)c1cscc1CCc1ccccc1", "> 100 µM"),
]

[in] Which value of TGI has been reported for CC(=O)OCC1OC(n2c(C)c(C(C)=O)c(-c3ccco3)c(C#N)c2=S)C(OC(C)=O)C(OC(C)=O)C1OC(C)=O (centres undefined) in the records?
[out] > 100 µM

[in] Which value of TGI has been reported for CCO/C(O)=C(/C(=N)N1CCOCC1)C(=O)NC(C)C in the records?
[out] > 100 µM

[in] Which value of TGI has been reported for CC(=Nc1ccc(N(C)C)cc1)c1ccccc1 in the records?
[out] 39.7 µM

[in] Which value of TGI has been reported for Cc1[nH]c(C)c(CN(C)C)c1CN(C)C in the records?
[out] > 100 µM
